Numbers sourced from ChEMBL document CHEMBL4609992.

Measured IC50 of individual entries
# Tested on: MOLM-13
# method-description: Antiproliferative activity against human MOLM13 cells assessed as reduction in cell viability measured after 48 hrs by CellTiter-Glo assay
# Assay type: functional, cell-based
# run-conditions: MOLM-13, 48 h
Quick note: give the figure in nM, leave out the unit.

Look over these answered cases.
>>> reported("COc1ccccc1S(=O)(=O)Nc1ccc2c3c(cc(CCC(=O)NCCCCCNc4cccc5c4C(=O)N(C4CCC(=O)NC4=O)C5=O)cc13)C(=O)N2C (stereo unspecified)")
177
>>> reported("COc1ccccc1S(=O)(=O)Nc1ccc2c3c(cccc13)C(=O)N2C")
3370
>>> reported("COc1ccccc1S(=O)(=O)Nc1ccc2c3c(cc(CCC(=O)NCCCCNc4cccc5c4C(=O)N(C4CCC(=O)NC4=O)C5=O)cc13)C(=O)N2C (stereo unspecified)")
52

Now for the molecule whose IC50 we want.
Could you tell me which IC50 is on file for COc1ccccc1S(=O)(=O)Nc1ccc2c3c(cc(CCC(=O)NCCCNc4cccc5c4C(=O)N(C4CCC(=O)NC4=O)C5=O)cc13)C(=O)N2C (stereo unspecified) ?
180
